# testedSystem: Serine/threonine-protein kinase PAK 1 (Homo sapiens) (UniProt Q13153);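 also: reported values are mean percent inhibition of PAK1 activity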
# Sequence (Q13153 whole entry): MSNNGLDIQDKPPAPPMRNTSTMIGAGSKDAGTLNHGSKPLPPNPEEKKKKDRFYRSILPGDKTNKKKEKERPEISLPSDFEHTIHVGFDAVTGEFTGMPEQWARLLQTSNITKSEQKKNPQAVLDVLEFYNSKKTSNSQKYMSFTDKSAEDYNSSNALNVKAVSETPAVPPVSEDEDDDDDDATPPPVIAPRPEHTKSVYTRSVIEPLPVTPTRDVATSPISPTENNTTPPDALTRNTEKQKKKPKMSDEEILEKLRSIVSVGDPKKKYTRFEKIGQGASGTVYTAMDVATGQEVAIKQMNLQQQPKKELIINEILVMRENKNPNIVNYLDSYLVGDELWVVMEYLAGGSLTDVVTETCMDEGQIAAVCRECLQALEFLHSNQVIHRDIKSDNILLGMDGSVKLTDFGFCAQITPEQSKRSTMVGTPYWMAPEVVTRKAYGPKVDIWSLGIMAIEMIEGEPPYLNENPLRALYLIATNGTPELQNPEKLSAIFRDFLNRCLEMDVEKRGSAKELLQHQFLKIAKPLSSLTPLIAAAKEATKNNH
# assayContext: at 1 µM
Overview of recorded inhibition for various molecules
# unit: % | format: bare number

Example entries begin here.
INSERT INTO assay_data (smilesdata, assayvalue) VALUES
  ('CCn1c(-c2nonc2N)nc2cnc(Oc3cccc(NC(=O)c4ccc(OCCN5CCOCC5)cc4)c3)cc21', 5.84),
  ('COc1ccc(-c2coc3ncnc(N)c23)cc1', 7.01),
  ('CCn1c(-c2nonc2N)nc2c(N3CCCC3)nccc21', -4.47),
  ('CCN1CCC(CC(=O)Nc2n[nH]c3nc(-c4cccs4)c(Br)cc23)CC1', -3.71),
  ('CCn1c(-c2nonc2N)nc2c(C#CC(C)(C)O)nc(OC[C@@H](N)c3ccccc3)cc21', 1.43),
  ('NC(=O)c1cccc(Nc2nccc(Nc3cccc4[nH]ncc34)n2)c1', -0.69),
  ('c1cnn2ncc(-c3ccnc(Nc4ccc5c(c4)OCCO5)n3)c2c1', 4.56),
  ('O=C1Nc2ccc(C(=O)c3ccco3)cc2C1=Cc1cc(Cl)c(O)c(Cl)c1', 3.96),
  ('Fc1cccc(COc2ccc(Nc3ncnc4cc(-c5ccc[nH]5)sc34)cc2Cl)c1', 5.78);

Attention now shifts to the item below.
GET /values?readout=inhibition&item= O=C1NC(=O)C(c2ccc(Cl)cc2)=C1Nc1ccc(Cl)c(C(=O)O)c1 2.15

====

The following compounds are listed with their measured inhibition values.
# testedSystem: Leucine-rich repeat serine/threonine-protein kinase 2 (Homo sapiens) (UniProt Q5S007);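 also: mean percent inhibition of LRRK2 measured in the GSK PKIS kinase inhibitor set screen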
# Sequence (Q5S007 whole entry): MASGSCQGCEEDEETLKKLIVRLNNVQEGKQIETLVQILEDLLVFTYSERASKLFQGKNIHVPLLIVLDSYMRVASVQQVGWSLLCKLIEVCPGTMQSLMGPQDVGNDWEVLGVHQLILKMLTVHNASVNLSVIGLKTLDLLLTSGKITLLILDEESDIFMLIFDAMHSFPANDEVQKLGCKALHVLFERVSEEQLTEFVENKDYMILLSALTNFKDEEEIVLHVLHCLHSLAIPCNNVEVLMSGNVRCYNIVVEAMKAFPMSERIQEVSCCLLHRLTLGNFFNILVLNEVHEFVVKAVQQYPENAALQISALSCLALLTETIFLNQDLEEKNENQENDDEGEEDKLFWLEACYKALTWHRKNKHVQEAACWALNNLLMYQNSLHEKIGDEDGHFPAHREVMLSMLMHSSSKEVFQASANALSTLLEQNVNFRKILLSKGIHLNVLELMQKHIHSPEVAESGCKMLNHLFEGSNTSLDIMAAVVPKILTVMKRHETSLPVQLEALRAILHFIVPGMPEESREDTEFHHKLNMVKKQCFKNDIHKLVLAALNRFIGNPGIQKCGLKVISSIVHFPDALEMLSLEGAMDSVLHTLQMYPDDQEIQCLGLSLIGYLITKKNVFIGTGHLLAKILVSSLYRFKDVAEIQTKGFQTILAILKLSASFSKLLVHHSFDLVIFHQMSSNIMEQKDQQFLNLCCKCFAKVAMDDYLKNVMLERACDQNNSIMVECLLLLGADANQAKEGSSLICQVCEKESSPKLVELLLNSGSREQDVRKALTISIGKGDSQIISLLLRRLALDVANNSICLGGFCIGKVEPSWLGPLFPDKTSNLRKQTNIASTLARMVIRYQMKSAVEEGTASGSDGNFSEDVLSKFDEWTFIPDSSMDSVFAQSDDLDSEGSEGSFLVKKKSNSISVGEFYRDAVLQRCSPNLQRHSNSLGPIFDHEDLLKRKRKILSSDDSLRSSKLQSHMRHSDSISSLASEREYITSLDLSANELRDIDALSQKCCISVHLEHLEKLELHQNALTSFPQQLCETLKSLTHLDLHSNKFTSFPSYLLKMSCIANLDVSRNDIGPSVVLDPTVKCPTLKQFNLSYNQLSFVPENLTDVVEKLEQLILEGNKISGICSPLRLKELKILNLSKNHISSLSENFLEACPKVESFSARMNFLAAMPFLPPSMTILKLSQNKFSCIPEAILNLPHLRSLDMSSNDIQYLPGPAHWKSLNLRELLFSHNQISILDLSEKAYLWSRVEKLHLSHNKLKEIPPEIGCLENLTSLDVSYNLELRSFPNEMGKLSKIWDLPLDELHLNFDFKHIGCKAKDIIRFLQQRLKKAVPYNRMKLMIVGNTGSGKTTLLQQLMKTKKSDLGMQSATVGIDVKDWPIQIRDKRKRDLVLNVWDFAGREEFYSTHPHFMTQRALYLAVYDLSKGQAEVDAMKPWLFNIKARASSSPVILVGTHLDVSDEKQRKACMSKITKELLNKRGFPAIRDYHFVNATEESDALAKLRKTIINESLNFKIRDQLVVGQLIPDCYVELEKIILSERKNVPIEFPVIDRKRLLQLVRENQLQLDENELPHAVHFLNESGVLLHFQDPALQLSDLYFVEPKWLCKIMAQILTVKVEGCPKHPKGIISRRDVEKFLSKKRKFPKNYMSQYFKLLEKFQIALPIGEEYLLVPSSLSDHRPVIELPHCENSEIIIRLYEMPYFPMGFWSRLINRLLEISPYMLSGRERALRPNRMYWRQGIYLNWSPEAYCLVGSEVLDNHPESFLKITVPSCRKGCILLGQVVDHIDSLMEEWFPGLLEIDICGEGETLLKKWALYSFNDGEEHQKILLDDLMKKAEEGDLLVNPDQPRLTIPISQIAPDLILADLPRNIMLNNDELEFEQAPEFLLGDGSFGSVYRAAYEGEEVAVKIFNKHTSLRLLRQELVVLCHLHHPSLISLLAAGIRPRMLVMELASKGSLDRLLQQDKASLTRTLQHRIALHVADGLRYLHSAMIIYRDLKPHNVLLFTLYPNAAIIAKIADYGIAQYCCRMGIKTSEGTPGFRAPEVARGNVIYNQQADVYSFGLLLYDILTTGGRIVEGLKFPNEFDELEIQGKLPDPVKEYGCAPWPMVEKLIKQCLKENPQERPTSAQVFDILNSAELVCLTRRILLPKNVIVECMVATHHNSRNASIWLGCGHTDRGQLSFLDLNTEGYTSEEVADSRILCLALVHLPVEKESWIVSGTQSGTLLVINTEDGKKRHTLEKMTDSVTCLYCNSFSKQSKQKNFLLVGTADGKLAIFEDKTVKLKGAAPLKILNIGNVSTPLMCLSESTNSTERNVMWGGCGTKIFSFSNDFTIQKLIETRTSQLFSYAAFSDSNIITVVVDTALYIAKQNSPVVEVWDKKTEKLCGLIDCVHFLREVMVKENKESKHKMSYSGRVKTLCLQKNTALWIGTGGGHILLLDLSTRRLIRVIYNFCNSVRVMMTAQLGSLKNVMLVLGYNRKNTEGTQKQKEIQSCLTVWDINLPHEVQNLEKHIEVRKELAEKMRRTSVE
# assayContext: at 1 µM
State the answer as a number, implicitly in %.

INSERT INTO assay_data (smilesdata, metricname, readoutunits, assayvalue) VALUES
  ('COc1cc2ncn(-c3cc(O[C@H](C)c4ccccc4Cl)c(C(N)=O)s3)c2cc1OC', 'inhibition', '%', 21.6),
  ('CS(=O)(=O)CCNCc1ccc(-c2ccc3ncnc(Nc4ccc(OCc5ccccc5)c(Cl)c4)c3c2)o1', 'inhibition', '%', 7.97),
  ('CC(C)=Cc1cccc2c1/C(=N/Nc1ccc(S(N)(=O)=O)cc1)C(=O)N2', 'inhibition', '%', 65.4),
  ('NC(=O)c1ccc(-c2nc(-c3ccccn3)c(-c3ccc4c(c3)OCO4)[nH]2)cc1', 'inhibition', '%', 5.02),
  ('c1cnn2ncc(-c3ccnc(Nc4ccc5c(c4)OCCO5)n3)c2c1', 'inhibition', '%', 19.8);

Please give the measured inhibition for this compound: CCn1c(-c2nonc2N)nc2c(N3CCCC3)nccc21 2.91

Would you kindly repeat that for COc1cc(C)c(NC(=O)CN(C)C)cc1Nc1nc(Nc2cccc(F)c2C(N)=O)c2cc[nH]c2n1 ? 90.2

Also, CCn1c(-c2nonc2N)nc2c(C#CC(C)(C)O)nc(CN3CCCC3)cc21 please. 1.92

Please answer likewise for Cc1ccc(NC(=O)c2ccnc(N3CCCC3)c2)cc1-c1ccc(C(=O)NCC2CC2)cc1 6.13

====

# testedSystem: Mitogen-activated protein kinase kinase kinase kinase 2 (Homo sapiens);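 also: reported value is a mean of MAP4K2 inhibition at 1 µM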
# assayContext: at 1 µM
inhibition reference
Entry rule: numbers only, all in %.

Below, each entry is followed by its recorded inhibition result.
INSERT INTO measurements (smilesdata, metricname, assayvalue) VALUES
  ('CCn1c(-c2nonc2N)nc2cnc(Oc3cccc(NC(=O)c4ccc(OCCN5CCOCC5)cc4)c3)cc21', 'inhibition', -1.08),
  ('Cc1nn(C)c2cc(N(C)c3ccnc(Nc4cccc(S(N)(=O)=O)c4)n3)ccc12', 'inhibition', 30.9),
  ('CCn1c(-c2nonc2N)nc2ccncc21', 'inhibition', 3.01),
  ('CCn1c(-c2nonc2N)nc2c(C#CC(C)(C)O)nc(OC[C@@H](N)c3ccccc3)cc21', 'inhibition', 8.96),
  ('CNC(=O)c1cncc(/C=C/c2c(Cl)cccc2Cl)c1', 'inhibition', 2.47);

Param readout = inhibition; param system = Mitogen-activated protein kinase kinase kinase kinase 2 (Homo sapiens); param query = NC(=O)c1cccc(Nc2nccc(Nc3cccc4[nH]ncc34)n2)c1 ; response: value 24.3

Reference for the values: ChEMBL document CHEMBL1961873
